System: 324938-238-R-J1-PDC complex spheroids viability
EXPERIMENT NOTES: Anticancer human tumor 324938-238-R-J1-PDC patient-derived bladder carcinoma cell line growth inhibition [CLK]; active = viability on the fitted dose curve at most 10% of control; inactive = the rest
TEST CONTEXT: second compound 10 µM; first compound 0.1 µM
Possible outcomes: 1.0 (active), 0.0 (inactive)

Nc1ccccc1NC(=O)c1ccc(CNC(=O)OCc2cccnc2)cc1 + CN1CCN(c2cc(C(=O)Nc3cc4cc(-c5cnn(C)c5)ccc4cn3)ccn2)CC1 | 1.0
CC(CO)NC(=O)c1cc(-c2ccc(Cl)cc2)nn(-c2cnn(C)c2)c1=O (stereo unspecified) + CNC(=O)c1ccc(Nc2nc(OC3CCCC3)c3c(-c4ccc5nc(C)oc5c4)c[nH]c3n2)c(OC)c1 | 0.0
Cn1ncnc1[C@H]1c2n[nH]c(=O)c3cc(F)cc(c23)N[C@@H]1c1ccc(F)cc1 + CNC(=O)c1ccc(Nc2nc(OC3CCCC3)c3c(-c4ccc5nc(C)oc5c4)c[nH]c3n2)c(OC)c1 | 0.0
CC1COCCN1c1cc(C2(S(C)(=N)=O)CC2)nc(-c2ccnc3[nH]ccc23)n1 (stereo unspecified) + CN1CCN(c2cc(C(=O)Nc3cc4cc(-c5cnn(C)c5)ccc4cn3)ccn2)CC1 | 1.0
Nc1ccccc1NC(=O)c1ccc(CNC(=O)OCc2cccnc2)cc1 + CNC(=O)c1ccc(Nc2nc(OC3CCCC3)c3c(-c4ccc5nc(C)oc5c4)c[nH]c3n2)c(OC)c1 | 0.0
CCc1c2c(nc3ccc(O)cc13)-c1cc3c(c(=O)n1C2)COC(=O)[C@]3(O)CC + CNC(=O)c1ccc(Nc2nc(OC3CCCC3)c3c(-c4ccc5nc(C)oc5c4)c[nH]c3n2)c(OC)c1 | 1.0

----------
System: 324938-238-R-J1-PDC complex spheroids viability
EXPERIMENT NOTES: Anticancer human tumor 324938-238-R-J1-PDC cell line growth inhibition [CLK];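 also: viability read after seven days of drug exposure; 100% = DMSO vehicle control wells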
TEST CONTEXT: second compound 10 µM; first compound 0.0316 µM; active compounds read low
QUANTITY: viability, T/C (%)

O=C(c1cc(Cc2n[nH]c(=O)c3ccccc23)ccc1F)N1CCN(C(=O)C2CC2)CC1 + CN1CCN(c2cc(C(=O)Nc3cc4cc(-c5cnn(C)c5)ccc4cn3)ccn2)CC1 | 0.11
CCc1c2c(nc3ccc(O)cc13)-c1cc3c(c(=O)n1C2)COC(=O)[C@]3(O)CC + CN1CCN(c2cc(C(=O)Nc3cc4cc(-c5cnn(C)c5)ccc4cn3)ccn2)CC1 | 0.17
COc1c(OCCCN2CCOCC2)ccc2c3n(c(=NC(=O)c4cnc(N)nc4)nc12)CCN3 + CNC(=O)c1ccc(Nc2nc(OC3CCCC3)c3c(-c4ccc5nc(C)oc5c4)c[nH]c3n2)c(OC)c1 | 6.72
CC(CO)NC(=O)c1cc(-c2ccc(Cl)cc2)nn(-c2cnn(C)c2)c1=O (stereo unspecified) + CN1CCN(c2cc(C(=O)Nc3cc4cc(-c5cnn(C)c5)ccc4cn3)ccn2)CC1 | 0.13
Nc1ccn(C2OC(CO)C(O)C2(F)F)c(=O)n1 (stereo unspecified) + CN1CCN(c2cc(C(=O)Nc3cc4cc(-c5cnn(C)c5)ccc4cn3)ccn2)CC1 | 0.11
COc1c(OCCCN2CCOCC2)ccc2c3n(c(=NC(=O)c4cnc(N)nc4)nc12)CCN3 + CN1CCN(c2cc(C(=O)Nc3cc4cc(-c5cnn(C)c5)ccc4cn3)ccn2)CC1 | 0.16
C=C(F)C(=O)N1CCN(c2nc(OCC3CCCN3C)nc3c2CCN(c2cccc4cccc(Cl)c24)C3)CC1CC#N (stereo unspecified) + CN1CCN(c2cc(C(=O)Nc3cc4cc(-c5cnn(C)c5)ccc4cn3)ccn2)CC1 | 0.34
C#Cc1c(F)ccc2cc(O)cc(-c3ncc4c(N5CC6CCC(C5)N6)nc(OCC56CCCN5CC(F)C6)nc4c3F)c12 (stereo unspecified) + CN1CCN(c2cc(C(=O)Nc3cc4cc(-c5cnn(C)c5)ccc4cn3)ccn2)CC1 | 0.11
C=CC(=O)N1CCN(c2nc(=O)n(-c3c(C)ccnc3C(C)C)c3nc(-c4c(O)cccc4F)c(F)cc23)C(C)C1 (stereo unspecified) + CN1CCN(c2cc(C(=O)Nc3cc4cc(-c5cnn(C)c5)ccc4cn3)ccn2)CC1 | 0.2
C=CC(=O)N1CCN(c2nc(=O)n(-c3c(C)ccnc3C(C)C)c3nc(-c4c(O)cccc4F)c(F)cc23)C(C)C1 (stereo unspecified) + CNC(=O)c1ccc(Nc2nc(OC3CCCC3)c3c(-c4ccc5nc(C)oc5c4)c[nH]c3n2)c(OC)c1 | 19.4
Cn1ncnc1[C@H]1c2n[nH]c(=O)c3cc(F)cc(c23)N[C@@H]1c1ccc(F)cc1 + CN1CCN(c2cc(C(=O)Nc3cc4cc(-c5cnn(C)c5)ccc4cn3)ccn2)CC1 | 0.12
